test system: HOP-62 complex spheroids with HUVEC/MSC, viability; assay: Anticancer human tumor HOP-62 cell line growth inhibition [RAS]; conditions: curve of first compound; second compound 0.000949 µM;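 further: spheroids exposed to agents for seven days before readout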
endpoint: pIC50
Bear in mind: pIC50 is minus log10 of a mol/L concentration; give just that figure.

1. CC(C)NCC(C(=O)N1CCN(c2ncnc3c2C(C)CC3O)CC1)c1ccc(Cl)cc1 (configuration not stated) + CCn1c(-c2cc(N3CCN(C)CC3)cnc2C(C)OC)c2c3cc(ccc31)-c1csc(n1)CC(NC(=O)C1CC1C)C(=O)N1CCCC(N1)C(=O)OCC(C)(C)C2; 5.41

Ask: I have this molecule here, CC(C)n1nc(-c2ccc3oc(N)nc3c2)c2c(N)ncnc21 + CCn1c(-c2cc(N3CCN(C)CC3)cnc2C(C)OC)c2c3cc(ccc31)-c1csc(n1)CC(NC(=O)C1CC1C)C(=O)N1CCCC(N1)C(=O)OCC(C)(C)C2 , and I need its recorded pIC50.
Result: 7.48
